# Target Under Test: EP3 receptor (Homo sapiens, UniProt P43115)
# Construct: purchased Millipore HTS092M
# Sequence (P43115 whole entry): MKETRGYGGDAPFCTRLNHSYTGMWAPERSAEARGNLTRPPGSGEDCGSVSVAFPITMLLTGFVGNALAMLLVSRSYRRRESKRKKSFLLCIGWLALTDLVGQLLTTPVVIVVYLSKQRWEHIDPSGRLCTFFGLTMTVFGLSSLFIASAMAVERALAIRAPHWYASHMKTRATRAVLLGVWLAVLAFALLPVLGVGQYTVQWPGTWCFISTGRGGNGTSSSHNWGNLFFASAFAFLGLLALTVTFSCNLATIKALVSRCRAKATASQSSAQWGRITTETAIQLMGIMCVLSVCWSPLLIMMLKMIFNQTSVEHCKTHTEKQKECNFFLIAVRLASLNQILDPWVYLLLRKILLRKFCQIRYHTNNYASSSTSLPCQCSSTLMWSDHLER
# Method Description: [3H]-PGE2 binding assay (EP3 competition binding)
# Test Parameters: read-out: [3H]-PGE2 Binding Ki
Assay Readout: pKi
Notebook: values listed as pKi are -log10 of the concentration (mol/L).

Below are worked cases with known answers.
• CC(C)C(Cc1ccc(-c2ccc3cccc(F)c3c2)[nH]c1=O)C1OC(=O)NC1=O (stereo not shown) = 7.34
• CCn1ncc2c(F)cc(-c3ccc(C(CC)(CC)c4nnc(N(C)C)o4)c(=O)[nH]3)cc21 = 8.22
• CC(C)C(c1nnn[nH]1)c1ccc(-c2ccc3ccccc3c2)[nH]c1=O (stereo not shown) = 7.37
• CCn1ncc2c(F)cc(-c3[nH]c(=O)c(C(/C=C4\OC(=O)NC4=O)C(C)C)cc3C)cc21 (stereo not shown) = 6.79
• CCn1ncc2c(F)cc(-c3ccc(C(CC)(CC)CC4OC(=O)NC4=O)c(=O)[nH]3)cc21 (stereo not shown) = 7.70

// query Please report the recorded pKi for CCn1ncc2c(F)cc(-c3ccc([C@@]45CCC[C@@H](C4)C(=O)O5)c(=O)[nH]3)cc21 (racemic) .
// result 7.54

// query Please report the recorded pKi for CC(C)C(c1ccc(-c2ccc3cccc(F)c3c2)[nH]c1=O)n1ccnc1N (stereo not shown) .
// result 7.89

// query Please report the recorded pKi for CC(C)C(F)(C(N)=O)c1ccc(-c2ccc3ccccc3c2)[nH]c1=O (stereo not shown) .
// result 7.31

// query Please report the recorded pKi for CONC1=NC(c2ccc(-c3ccc4cccc(F)c4c3)[nH]c2=O)(C(C)C)CN1 (stereo not shown) .
// result 8.70

// query Please report the recorded pKi for CC(C)C(C(=O)NCCOCCOCCN(C)C)c1ccc(-c2ccc3cccc(F)c3c2)[nH]c1=O (stereo not shown) .
// result 7.92

// query Please report the recorded pKi for CCn1ncc2c(Cl)cc(-c3ccc(C(/C=C4\OC(=O)NC4=O)C(C)C)c(=O)[nH]3)cc21 (stereo not shown) .
// result 8.10

// query Please report the recorded pKi for CCN1CCOc2c(F)cc(-c3ccc(C(CN4CCS(=O)(=O)CC4)C(C)C)c(=O)[nH]3)cc21 (stereo not shown) .
// result 8.22

// query Please report the recorded pKi for CC(C)C(NC(=O)NCCN(C)C)c1ccc(-c2ccc3cccc(F)c3c2)[nH]c1=O (stereo not shown) .
// result 7.55

###

# Target Under Test: EP3 receptor (Homo sapiens, UniProt P43115)
# Method Description: CHO cell cAMP assay (forskolin and sulprostone stimulated, HTRF)
# Test Parameters: CHO cells; sulprostone 700 nM (EC80) and FSK 2 μM (EC70), 37° C. for 30 minutes; read-out: CHO_cAMP IC50
Each record's IC50 is compared with I (below 60 nM), II (60 nM to below 500 nM), III (500 nM or more) to give its class.

- CC1(c2ccc(-c3ccc4ccccc4c3)[nH]c2=O)CN/C(=N\C#N)N1 (stereo not shown) [compound 283]: II
- CC(C)C(/C=C1\OC(=O)NC1=O)c1ccc(-c2ccc3c(ccn3C)c2)[nH]c1=O (stereo not shown) [compound 118]: II
- CC(C)C(Cc1ccc(-c2ccc3cccc(F)c3c2)[nH]c1=O)c1nnn[nH]1 (stereo not shown) [compound 270]: III

// query Which bin, given its IC50, does CONC(=O)CC(c1ccc(-c2ccc3cccc(F)c3c2)[nH]c1=O)C(C)C (stereo not shown) [compound 257] occupy?
// result I

// query Which bin, given its IC50, does CCN1C(=O)COc2c(F)cc(-c3ccc(C(CN4CCS(=O)(=O)CC4)C(C)C)c(=O)[nH]3)cc21 (stereo not shown) [Compound #128] occupy?
// result III

// query Which bin, given its IC50, does CC(C)C1(c2ccc(-c3ccc4cccc(F)c4c3)[nH]c2=O)CNC(NC#N)=N1 (stereo not shown) [compound 291] occupy?
// result I

// query Which bin, given its IC50, does CC(C)C(CC(N)=O)c1ccc(-c2ccc3ccccc3c2)[nH]c1=O (stereo not shown) [compound 249] occupy?
// result I

// query Which bin, given its IC50, does CCn1ncc2c(F)cc(-c3ccc(C4(F)CCCN(S(=O)(=O)C(C)C)C4)c(=O)[nH]3)cc21 (stereo not shown) [compound 296] occupy?
// result II

// query Which bin, given its IC50, does CC(C)C(/C=C1/C(=O)NC(=O)N1C)c1ccc(-c2ccc3cccc(F)c3c2)[nH]c1=O (stereo not shown) [Compound #80] occupy?
// result I

// query Which bin, given its IC50, does CCC(/C=C1/OC(=O)NC1=O)(CC)c1ccc(-c2ccc3c(c2)OC(C)(C)C=C3)[nH]c1=O [compound 28] occupy?
// result III

// query Which bin, given its IC50, does NC(=O)C(C1=CCCCC1)c1ccc(-c2ccc3ccccc3c2)[nH]c1=O (stereo not shown) [compound 226] occupy?
// result III

// query Which bin, given its IC50, does CC(C)S(=O)(=O)N1CCC(c2ccc(-c3ccc4ccccc4c3)[nH]c2=O)CC1 [compound 200] occupy?
// result III

// query Which bin, given its IC50, does CC(C)S(=O)(=O)N1CCC(c2ccc(-c3ccc4cc(F)ccc4c3)[nH]c2=O)CC1 [compound 199] occupy?
// result III

// query Which bin, given its IC50, does CC(C)C(Cc1ccc(-c2ccc3cccc(F)c3c2)[nH]c1=O)c1nnc[nH]1 (stereo not shown) [compound 309] occupy?
// result II

// query Which bin, given its IC50, does CCN1CCOc2ccc(-c3ccc(C(C(C)C)N4CCS(=O)(=O)CC4)c(=O)[nH]3)cc21 (stereo not shown) [Compound #169] occupy?
// result II
